melting point: recorded values

Known melting point results, listed for orientation:
>  <compound>
CN1/C(=C\c2ccc(-c3ccccc3[N+](=O)[O-])o2)C(=O)N/C1=N\C(=O)Nc1ccc(Cl)cc1Cl

>  <melting point>
206 to 208 °C

$$$$
>  <compound>
CN1/C(=C\c2ccc([N+](=O)[O-])cc2)C(=O)N/C1=N\C(=O)Nc1ccc(F)cc1

>  <melting point>
156 to 158 °C

$$$$
>  <compound>
Cc1ccc(/C=C2/C(=O)N/C(=N\C(=O)Nc3ccccc3F)N2C)o1

>  <melting point>
196 to 198 °C

$$$$
>  <compound>
CN1/C(=C\c2ccc(Br)o2)C(=O)N/C1=N\C(=O)Nc1cccc(F)c1 [Compound 4g]

>  <melting point>
196 to 198 °C

$$$$

Consider the record given below.
I have this compound here, Cc1ccc(/C=C2/C(=O)N/C(=N\C(=S)Nc3cccc(Cl)c3)N2C)o1 , and I need its recorded melting point.
158 to 160 °C

###

measure-name: melting point

Known melting point results, listed for orientation:
>  <compound>
CN1C(=Cc2ccc(-c3ccccc3[N+](=O)[O-])o2)C(=O)N/C1=N\C(=S)Nc1ccc(F)cc1 (stereo in doubt)

>  <observed-result>
158 to 160 °C

$$$$
>  <compound>
CN1/C(=C\c2ccc([N+](=O)[O-])cc2)C(=O)N/C1=N\C(=O)Nc1ccccc1F

>  <observed-result>
150 to 152 °C

$$$$
>  <compound>
Cc1ccc(/C=C2/C(=O)N/C(=N\C(=S)Nc3ccc(F)cc3)N2C)o1

>  <observed-result>
146 to 148 °C

$$$$
>  <compound>
Cc1ccc(/C=C2/C(=O)N/C(=N\C(=O)Nc3cccc(F)c3)N2C)o1

>  <observed-result>
188 to 190 °C

$$$$
>  <compound>
CN1/C(=C\c2ccc([N+](=O)[O-])cc2)C(=O)N/C1=N\C(=O)Nc1cccc(F)c1

>  <observed-result>
144 to 146 °C

$$$$

I have this compound here, CN1/C(=C\c2ccc(Br)o2)C(=O)N/C1=N\C(=O)Nc1ccc(Cl)cc1Cl , and I need its recorded melting point.
198 to 200 °C

I have this compound here, CN1/C(=C\c2ccc(Br)o2)C(=O)N/C1=N\C(=S)Nc1cccc(Cl)c1 , and I need its recorded melting point.
140 to 142 °C

I have this compound here, CN1C(=Cc2ccc([N+](=O)[O-])cc2)C(=O)N/C1=N\C(=S)Nc1cccc(Cl)c1 (stereo in doubt) , and I need its recorded melting point.
166 to 168 °C

I have this compound here, Cc1ccc(/C=C2/C(=O)N/C(=N\C(=O)Nc3ccc(F)cc3)N2C)o1 , and I need its recorded melting point.
186 to 188 °C
